assay: Fraction unbound in Han Wistar rat plasma; type: ADME, cell-free
Quantity name: fraction unbound
Field format: numeric only.

Query: What value of fraction unbound has been recorded for this entry: C=CC(=O)Nc1cc(Nc2nccc(-c3cn(C)c4ccccc34)n2)c(OC)cc1N(C)CCNC
Response: 0.023

Query: Consider next the compound C=CC(=O)Nc1cc(Nc2nccc(-c3c[nH]c4ccccc34)n2)c(OC)cc1N(C)CCN(C)C in the same way.
Response: 0.16

Query: Consider next the compound C=CC(=O)Nc1cc(Nc2ncc(Cl)c(-c3c[nH]c4ccccc34)n2)c(OC)cc1N(C)CCN(C)C in the same way.
Response: 0.075

Query: Consider next the compound C=CC(=O)Nc1cc(Nc2nccc(-c3cn(C)c4ccccc34)n2)c(OC)cc1N(C)CCN(C)C [OSIMERTINIB] in the same way.
Response: 0.032

Query: Consider next the compound C=CC(=O)Nc1cc(Nc2ncc(C#N)c(-c3cn(C)c4ccccc34)n2)c(OC)cc1N(C)CCN(C)C in the same way.
Response: 0.11
